system: C. pseudotropicalis 2371E; assay: in vitro antifungal screen, MIC by two-fold serial dilution; format: cell-based, Candida pseudotropicalis
endpoint: MIC

> print(dat)
                                   compound     value
1  C=CCN1CC(C)OC(OCC23CC4C(C)CCC4C4(C=O)CC2C=C(C(C)C)C43C(=O)O)C1 (stereo not shown)   4 ng/mL
2  C#CCN1CC(C)OC(OCC23CC4C(C)CCC4C4(C=O)CC2C=C(C(C)C)C43C(=O)O)C1 (stereo not shown)  15 ng/mL
3  CC1CN(C2CC2)CC(OCC23CC4C(C)CCC4C4(C=O)CC2C=C(C(C)C)C43C(=O)[O-])O1.[K+] (stereo not shown)   4 ng/mL
